Listed here: items and their measured furin cleavage Z-score.
Target: furin, P09958;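 also: purified furin at 1:10 enzyme:substrate in 50 mM HEPES pH 7.5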
Sequence (P09958 whole entry): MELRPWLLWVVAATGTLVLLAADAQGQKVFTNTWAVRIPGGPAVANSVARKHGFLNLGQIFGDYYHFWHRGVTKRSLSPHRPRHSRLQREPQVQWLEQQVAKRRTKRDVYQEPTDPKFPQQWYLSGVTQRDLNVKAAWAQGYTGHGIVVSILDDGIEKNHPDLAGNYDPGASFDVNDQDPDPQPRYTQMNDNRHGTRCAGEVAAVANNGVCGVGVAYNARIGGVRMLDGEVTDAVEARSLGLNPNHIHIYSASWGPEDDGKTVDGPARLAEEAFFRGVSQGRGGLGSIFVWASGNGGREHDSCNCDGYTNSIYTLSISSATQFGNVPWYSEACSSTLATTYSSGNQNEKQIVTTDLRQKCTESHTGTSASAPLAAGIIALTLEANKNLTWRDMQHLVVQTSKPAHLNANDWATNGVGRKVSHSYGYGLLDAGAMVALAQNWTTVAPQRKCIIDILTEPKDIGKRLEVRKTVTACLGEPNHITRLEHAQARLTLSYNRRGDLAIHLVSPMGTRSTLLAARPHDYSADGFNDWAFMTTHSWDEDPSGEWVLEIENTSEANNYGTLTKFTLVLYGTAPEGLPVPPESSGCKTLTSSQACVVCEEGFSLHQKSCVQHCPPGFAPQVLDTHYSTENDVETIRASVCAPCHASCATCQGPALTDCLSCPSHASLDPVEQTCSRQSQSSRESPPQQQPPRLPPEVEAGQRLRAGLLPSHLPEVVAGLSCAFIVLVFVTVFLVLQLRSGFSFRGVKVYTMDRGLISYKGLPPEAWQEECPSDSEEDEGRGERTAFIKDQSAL
Experiment: furin cleavage Z-score vs untreated control; higher = more cleavage, active = 3.5 or more, inactive = 1 or less, 8 variable residues between constant flanks
Settings: 15 min
The other results are listed elsewhere or left out. The true hit rate is not given.
// no unit string in output, number only

Worked examples follow.
> print(dat)
                 sequence.chain                  metric  result.number
1     CAMEECIQHLAGNASASA [HC25]  furin cleavage Z-score          0.509
2  CARVKRSPGLAGNASASA [FS-2387]  furin cleavage Z-score           10.3

Indicate the recorded furin cleavage Z-score value for this sequence: CALRPRFRREAGNASASA [FS-614]
8.78

Indicate the recorded furin cleavage Z-score value for this sequence: CAISGIQYLAAGNASASA [HC1045]
0.557

Indicate the recorded furin cleavage Z-score value for this sequence: CAKIPRFRRIAGNASASA [FS-449]
0.191

Indicate the recorded furin cleavage Z-score value for this sequence: CALRWRQRRAAGNASASA [FS-272]
4.93

Indicate the recorded furin cleavage Z-score value for this sequence: CAVLCCSMSYAGNASASA [HC2005]
1.47

Where do these numbers come from? They come from the supplement of paper PMC3545927.
